- tested-on: T1, AMA-1 on P. falciparum 3D7 strain parasites (Plasmodium falciparum)
- T1 chain: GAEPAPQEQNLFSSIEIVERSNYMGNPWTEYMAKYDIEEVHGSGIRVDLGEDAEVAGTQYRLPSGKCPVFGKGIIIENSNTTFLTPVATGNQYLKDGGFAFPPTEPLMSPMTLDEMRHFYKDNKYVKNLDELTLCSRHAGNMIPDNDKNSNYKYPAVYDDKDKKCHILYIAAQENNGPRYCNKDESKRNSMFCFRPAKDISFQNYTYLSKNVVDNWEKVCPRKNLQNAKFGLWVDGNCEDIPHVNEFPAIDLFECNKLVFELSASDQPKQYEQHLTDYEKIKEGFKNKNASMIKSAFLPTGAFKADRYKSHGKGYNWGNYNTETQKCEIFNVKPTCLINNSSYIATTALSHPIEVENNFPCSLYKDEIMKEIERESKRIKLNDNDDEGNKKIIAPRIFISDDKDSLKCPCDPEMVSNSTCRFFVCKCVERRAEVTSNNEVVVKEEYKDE
- experimental-details: cell-based or functional assay
property: IC30 concentration in GIA against 3D7 target parasites (µg/mL)
The reply should contain only the number, in µg/mL.

// lookup IC30 concentration in GIA against 3D7 target parasites for Monoclonal 1B10 (antibody, V domains shown) VH: EVQLQESGPGLVQPSQSLSITCTVSGFSLNMYGVHWVRQSPGKGLEWLGVIWSGGTTDYNAAFISRLSINRDNSKSQVFFKMNSLQTDDTAIYYCVRNNGYYVDAMDYWGQGTSVAVSS VL: DVVMTQTPLSLPVSLGDQASISCRSSQSLVHSNGNTYLHWYLQRPGQSPKLLIYKVSNRFSGVPDRFSGSGSGTDFTLKISRVEAEDLGVYFCSQSTLGPTFGGGTKLEMQR
150

Using the record for Monoclonal 1E10 (antibody, V domains shown) VH: EVQLQESGAELAKPGASVKLSCKASGYTFTNYLMHWIKQRPGQGLEWIGYINHGSGYTNYNQKFIDRATLTADKSSSTAYMQLRSLTYEDSAVYYCVHGYFDVWGTGTTVTVSS VL: QIVLTQSPTIMSASPGEKVTMTCSASSSVTYMHWYQQKPGTSPKRWIYDTSKLASGVPARFSGSGSGTSYSLTISSMEAEDAATYYCHQRSSYPTFGGGTKLEIKR , report its IC30 concentration in GIA against 3D7 target parasites.
1900

Record request: IC30 concentration in GIA against 3D7 target parasites value, item Monoclonal 4E8 (antibody, V domains shown) VH: EVQLQESGPGLVQPSQSLSITCTVSDFSLIMYGVHWVRQSPGKGLEWLGVIWSGGSTDYNAAFISRLSISKDNSKSQVFFKMNSLQADDTAIYYCARNNGYYVDAMDYWGQGTSVTVSS VL: DVVMTQTPLSLPVSLGDQASISCRSSQSLVHNNGNTYLHWYLQKPGQSPKLLIYKVSNRFFGVPDRFSGSGSGTDFTLKISRVEAEDLGVYFCSQSTHVPTFGGGTKLEIKR
150

Attention now shifts to the item below.
# IC30 concentration in GIA against 3D7 target parasites lookup, item Monoclonal 4E11 (antibody, V domains shown) VH: EVQLQESGPGLVRPSQSLSITCTVSGFSLPLYGVHWVRQSPGKGLEWLGVIWSGGSTDYNAAFVSRLSISKDNSKSQVFFEMNSLQADDTATYYCARNNGYYVDAMDYWGQGTSVTVSS VL: DVVMTQTPLSLPVSLGDQASISCRSSQSLVHSNGNTYLHWYLQKPGQSPKLLIFKVSNRFSGVPDRFSGSGSGTDFTLQISRVEAEDLGFYFCSQSTHVPTFGGGTKLEIKR
220
